Target: pFAST
Construct: gene pyp; multipoint directed-evolution variant of FAST (itself engineered PYP); E. coli BL21(DE3)
Experiment: spectrofluorometric titration of protein with chromophore
Type: binding, Halorhodospira halophila
Details: 0.10 µM protein, 25 °C
molecules and their reported Kd

Below, each entry is followed by its recorded Kd result.
{"MOLECULE": "COc1cc(O)ccc1/C=C1N=C(/C=C/c2ccncc2)N(C)C\\1=O [N871b]", "SYSTEM NAME": "pFAST", "Kd": "0.04 µM"}
{"MOLECULE": "COc1cc(O)ccc1/C=C1N=C(/C=C/c2ccccn2)N(C)C\\1=O", "SYSTEM NAME": "pFAST", "Kd": "0.029 µM"}
{"MOLECULE": "COc1cc(O)ccc1/C=C1N=C(/C=C/c2cccs2)N(C)C\\1=O", "SYSTEM NAME": "pFAST", "Kd": "0.023 µM"}

Below: the item to evaluate.
Kd for `COc1cc(O)ccc1/C=C1\N=C2C=C(/C=C/c3ccncc3)C=CN2C1=O` is 0.025 µM
